The measured values listed here are drawn from patent US20220119522A1.

Item-by-item account of NFAT EC50 (nM), plate coated mAb
- system_tested: T1, human TREM2 on the cell surface (human, UniProt Q9NZC2 19-230)
- T1 sequence: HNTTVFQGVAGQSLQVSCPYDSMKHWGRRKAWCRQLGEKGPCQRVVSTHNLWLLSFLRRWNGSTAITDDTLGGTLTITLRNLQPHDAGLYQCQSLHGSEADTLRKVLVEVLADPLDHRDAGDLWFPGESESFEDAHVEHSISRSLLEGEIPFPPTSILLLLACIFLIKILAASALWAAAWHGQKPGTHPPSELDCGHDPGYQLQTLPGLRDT
- assay_comment: cell-based or functional assay
Give just the numeric value; nM need not be written.

Record excerpt, results attached:
binder: CL0020308 (antibody, V domains shown, also called Clone CL0020308) VH: QVQLKQSGPSLVQPSQSLSITCTVSGFSLTTYGIHWVRQSPGKGLEWLGVIWTGGSTAFNAAFMSRLSITKDNSKSQVFFKMNSLQADDTAIYYCAKVGFHSATDYWGQGTSVTVSS VL: DVLMTQTPLSLPVTLGDQASISCRSSQNLVHSNGNTYLEWYLQKPGQSPKLLIYKVSNRFSGVPDRFSGSGSGTDFTLKISRVEAEDLGLYYCFQGSHVPFTFGSGTKLEIK
uom: nM
NFAT EC50 (nM), plate coated mAb: 51.9
--
binder: CL0020127 (antibody, V domains shown, also called Clone CL0020127) VH: EVQLQQSGPVLVKPGASVKMSCKASGYKFTDYYMNWVKQSHGKSLEWIGTINPYSGGISYNQKFKGKATLTVDKSSSTAYMELNSLTSEASAVYYCTRRNWDGRYAMDYWGQGTSVTVSS VL: DIVMTQSHKFMSTSVGDRVSITCKASQDVSTAVAWYQQKPGQSPKLLIYWASTRHTGVPDRFTGSGSGTDFTLTISNVQSEDLAEYFCQQYSSYPFTFGGGTKLEIK
uom: nM
NFAT EC50 (nM), plate coated mAb: 20.5
--
binder: CL0020141 (antibody, V domains shown, also called Clone CL0020141) VH: EVTLVESGGGLVQPGGSLRLSCATSGFTFTDYYMSWVRQPPGKALEWLGFIRDKANGYTTDYSASVKGRFTISRDNSQNILYLQMNTLRAEDSATYYCSRLLRAQGFAYWGQGTLVTVSA VL: DIVMSQSPSSLGVSIGEKVIMSCTSGQSLLYSNNQKNYLAWYQQKPGQSPKLLIYWASTRESGVPDRFTGSGSGTDFTLTINSVKAEDLAVYYCQQYYRNPFTFGSGTKLEIK
uom: nM
NFAT EC50 (nM), plate coated mAb: 25.5

Form field: reported NFAT EC50 (nM), plate coated mAb of CL0020096 (antibody, V domains shown, also called Clone CL0020096) VH: QIQLVQSGPELRKPGETVKISCKASGYTFTTYGMSWVKQAPGKGLKWMGWINTYSGLPRHSDDFKGRFAFSLETSASTAYLQINNLKNEDTATYFCAREVYYGSRKTAWFAYWGQGTLVTVSA VL: DLVMSQSPSSLAVSVGERVTMSCKSSQSLLYSNDQKNYLAWYQQIPGQSPKLLIYWASTRESGVPDRFTGSGSGTDFTLTISSVKAEDLAVYFCQQYYSYPPTFGAGTKLELK
16.2

Record request: NFAT EC50 (nM), plate coated mAb value, item CL0020205 (antibody, V domains shown, also called Clone CL0020205) VH: EVQLQQSGPVLVKPGASVKMSCKASGYTFTDYYVHWVKQSHGKSLEWIGLINPYTGTTSYNQRFRVKATLTVDKSSSTAYMEVNSLTSEDSAVYYCARSRVYYGSSLFAFWGQGTLVTVSA VL: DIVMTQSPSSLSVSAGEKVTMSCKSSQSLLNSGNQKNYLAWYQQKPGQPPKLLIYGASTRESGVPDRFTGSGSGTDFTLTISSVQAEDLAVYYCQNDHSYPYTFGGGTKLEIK
67.7
